# System: Ruminococcus gnavus DSM 108212
# test.method.notes: growth (OD595) fold change vs plate DMSO controls (fold change (ratio)); higher = more growth
# condition.parameters: incubation time: 27 h, anaerobic, 37 °C
Structures can show the parent of a compound that is named as a salt.
Hi there, I'd appreciate the recorded growth for every entry that follows.
One number for each entry.

Record excerpt, results attached:
compound="CC(C)(C)C(=O)OCOC(=O)[C@@H]1N2C(=O)[C@@H](NC(=O)[C@H](N)c3ccccc3)[C@H]2SC1(C)C [Pivampicillin] (20 µM)" result_value=0
compound="CCCCCCOc1ccccc1C(N)=O [Exalamide] (20 µM)" result_value=1.23
compound="Nc1nc2ccc(OC(F)(F)F)cc2s1 [Riluzole hydrochloride] (20 µM)" result_value=0.998
compound="CN(C)CCN1C(=O)c2ccccc2N(C)c2ccccc21 [Dibenzepine hydrochloride] (20 µM)" result_value=0.677
compound="O=C(C1CCCCC1)N1CC(=O)N2CCc3ccccc3C2C1 (stereo not drawn) [Praziquantel] (20 µM)" result_value=0.82
compound="COc1ccccc1OCC(O)CO (stereo not drawn) [Guaifenesin] (20 µM)" result_value=1.03
compound="Cc1nc2n(c(=O)c1CCN1CCC(c3noc4cc(F)ccc34)CC1)CCCC2O (stereo not drawn) [Paliperidone] (20 µM)" result_value=1
compound="O=C(c1ccc(OCCN2CCCCC2)cc1)c1c(-c2ccc(O)cc2)sc2cc(O)ccc12 [Raloxifene hydrochloride] (20 µM)" result_value=1.2

Please look at the items below and tell me growth for each one, in order.
1. Cc1c(OCC(F)(F)F)ccnc1C[S+]([O-])c1nc2ccccc2[nH]1 (stereo not drawn) [Lansoprazole] (20 µM)
2. CN(C)/N=N/c1[nH]cnc1C(N)=O [Dacarbazine] (20 µM)
3. CN1CCCC(n2nc(Cc3ccc(Cl)cc3)c3ccccc3c2=O)CC1 (stereo not drawn) [Azelastine hydrochloride] (20 µM)
4. O=c1n(CCCN2CCN(c3cccc(Cl)c3)CC2)nc2ccccn12 [Trazodone hydrochloride] (20 µM)

Key:
1: 1.02; 2: 1.02; 3: 0.57; 4: 1.06

Hello, I would appreciate it if you could give growth for each entry below.
1. COc1cc(N)cn[n+]1-c1ccccc1 [Amezinium metilsulfate] (20 µM)
2. NC(=O)N1c2ccccc2CC(=O)c2ccccc21 [Oxcarbazepine] (20 µM)
3. COc1cc2c(cc1OC)CC(=O)N(CCCN(C)C[C@H]1Cc3cc(OC)c(OC)cc31)CC2 [Ivabradine hydrochloride] (20 µM)
4. Fc1ccc([C@@H]2CCNC[C@H]2COc2ccc3c(c2)OCO3)cc1 [Paroxetine hydrochloride] (20 µM)
5. OC[C@H]1O[C@@H](O[C@H]2[C@H](O)[C@@H](O)[C@H](O)O[C@@H]2CO)[C@H](O)[C@@H](O)[C@H]1O [Lactose] (50 µM)

Key:
1: 1.07; 2: 1; 3: 0.903; 4: 0.929; 5: 1.07

Exercise: Name the recorded growth for CC(C)NCC(O)c1ccc2ccccc2c1 (stereo not drawn) [Pronethalol hydrochloride] (20 µM) .
Key: 0.98
